# assay-target: SMO (Mus musculus)
# Construct: endogenous in cells; host or cells: C3H10T1/2 (ATCC #CCL-226)
# Sequence (P56726 33-793): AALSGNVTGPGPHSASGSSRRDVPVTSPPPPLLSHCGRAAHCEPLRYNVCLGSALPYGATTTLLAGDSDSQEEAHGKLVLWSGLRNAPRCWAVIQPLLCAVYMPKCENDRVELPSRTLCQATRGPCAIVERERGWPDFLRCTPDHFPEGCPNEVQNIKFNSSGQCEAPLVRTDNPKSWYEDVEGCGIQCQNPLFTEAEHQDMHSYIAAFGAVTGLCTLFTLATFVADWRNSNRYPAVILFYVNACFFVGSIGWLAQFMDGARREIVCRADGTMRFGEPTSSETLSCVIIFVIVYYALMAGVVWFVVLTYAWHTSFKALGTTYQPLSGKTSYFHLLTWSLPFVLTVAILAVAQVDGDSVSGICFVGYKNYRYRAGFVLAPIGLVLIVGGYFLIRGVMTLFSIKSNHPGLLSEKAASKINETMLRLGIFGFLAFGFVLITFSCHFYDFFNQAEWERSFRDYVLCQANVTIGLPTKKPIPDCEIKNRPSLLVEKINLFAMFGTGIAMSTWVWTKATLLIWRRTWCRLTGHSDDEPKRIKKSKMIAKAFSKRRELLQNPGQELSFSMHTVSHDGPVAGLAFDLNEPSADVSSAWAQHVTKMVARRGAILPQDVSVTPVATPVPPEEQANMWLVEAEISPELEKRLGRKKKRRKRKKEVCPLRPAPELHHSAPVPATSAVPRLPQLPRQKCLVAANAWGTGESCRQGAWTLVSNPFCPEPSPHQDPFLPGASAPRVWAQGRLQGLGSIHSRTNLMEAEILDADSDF
# method-summary: Smoothened (SMO)/Sonic Hedgehog (SHh) Transient Transcriptional Activation Assay (Gli-luciferase reporter in C3H10T1/2 cells)
# Assay type: cell-based, murine
# test-parameters: C3H 10T1/2, 2 μM test compound, SHh 250 ng/ml, 20 hrs, read-out: SMO CELL % INHIBITION @ 2 μM
readout-name: inhibition at 2 µM (%)

(I) Cc1cc2c(cc1C(=O)NC13CCCC(c4nc5cc(C(F)(F)F)ccc5[nH]4)(C1)C3)OCCO2
(II) O=C(N[C@@H]1CCC[C@H](c2nc3ccccc3[nH]2)C1)c1c[nH]c2ccccc12
Prompt line: # returns the entry with the larger inhibition at 2 µM; inputs I and II Please indicate the selected item by its label.
Response line: I
